Source listed as paper PMC8910297.

- system name: Human galectin-3 (hGal-3) (Homo sapiens, UniProt P17931)
- Construct: gene LGALS3
- Sequence (P17931 108-250): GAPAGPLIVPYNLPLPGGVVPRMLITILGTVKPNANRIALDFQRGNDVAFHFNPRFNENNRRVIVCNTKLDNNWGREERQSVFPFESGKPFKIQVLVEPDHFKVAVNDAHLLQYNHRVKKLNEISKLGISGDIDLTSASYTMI
- experimental protocol: biochemical
measurement kind: Kd (mM)
Just the number please, in mM, no unit attached.

Incoming: Entry OC[C@H]1O[C@@H]([Se][Se][C@@H]2O[C@H](CO)[C@H](O)[C@H](O)[C@H]2O)[C@H](O)[C@@H](O)[C@H]1O [DSeDG, di(β-D-galactopyranosyl)diselenide] : reported Kd = ?
Outgoing: 8.5
